Every entry's value here was drawn from patent US20260137783A1.

measuredOn: T1, Cell surface CD117 on CD117+ cells (SKMEL / SKMEL-3 cells, CD34+ cells / HSPCs, Kasumi-1 cells) (UniProt P10721 26-976, limits assumed)
T1 construct: whole, on cells; also called cKIT; C-kit
protocolDescription: flow cytometry on SKMEL cells and CD34 cells (both CD117+)
propertyMeasured: binding result

Anti-CD117 VHH P10 (monovalent form) (VHH, Secreted from Expi293 cells) VHH: QVQLVESGGGLVQAGGSLRLSCVASGRTFSSYAMGWFRQGPGKEREFAAAILSNGLTTYYADSVKGRFTISRDNAKDTVYLQMNSLKPEDTANYYCAAAFTPEFRDGGIWDDASVDYWGQGTQVTVSS    binds
Anti-CD117 VHH P12 (monovalent form) (VHH, Secreted from Expi293 cells) VHH: QVQLVESGGGLVQAGGSLRLSCTASGDTFSSYSMGWFRQGPGKEREFVGGIRWSGGTTYYADSVKGRFTISRDNAKNTVYLQMNSLKREDTAVYYCAAVRRRWLIWQEEEYDYWGQGTLVTVSS    binds
Anti-CD117 VHH P31 (monovalent form) (VHH, Secreted from Expi293 cells) VHH: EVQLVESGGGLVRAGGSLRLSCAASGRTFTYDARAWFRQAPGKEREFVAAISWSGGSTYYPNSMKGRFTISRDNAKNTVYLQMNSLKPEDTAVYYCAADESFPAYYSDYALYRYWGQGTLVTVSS    binds
Anti-CD117 VHH P29 (monovalent form) (VHH, Secreted from Expi293 cells) VHH: QVHLVESGGGLVQAGGSLGLSCAASGHTFSNYAMGWFRQAPGKEREFVAAISWSGGSTLYADSVKGRFTISRDNGENTVYLQMNSLKPEDTAVYYCALDSTGVYGTGYVSSRKGRYEYWGQGTLVTVSS    binds
Anti-CD117 VHH P27 (monovalent form) (VHH, Secreted from Expi293 cells) VHH: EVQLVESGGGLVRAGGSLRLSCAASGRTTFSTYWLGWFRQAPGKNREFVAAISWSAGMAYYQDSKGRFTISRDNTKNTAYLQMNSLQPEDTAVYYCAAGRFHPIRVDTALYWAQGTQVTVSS    binds

Record summary for Anti-CD117 VHH P35 (monovalent form) (VHH, Secreted from Expi293 cells) VHH: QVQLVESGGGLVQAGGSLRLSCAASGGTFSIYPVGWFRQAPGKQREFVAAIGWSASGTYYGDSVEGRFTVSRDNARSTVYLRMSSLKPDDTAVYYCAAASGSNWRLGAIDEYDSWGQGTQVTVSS : reported binding result = binds

Record summary for Anti-CD117 VHH P38 (monovalent form) (VHH) VHH: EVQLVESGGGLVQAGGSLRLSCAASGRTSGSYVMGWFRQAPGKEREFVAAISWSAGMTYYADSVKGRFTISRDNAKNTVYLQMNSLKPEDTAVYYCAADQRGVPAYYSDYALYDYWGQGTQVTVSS : reported binding result = binds
